- Tested on: T lymphocyte cell line Jurkat E6-1
- protocol_notes: Cytotoxicity experiment (CCK-8, relative cell survival)
- Assay type: cell-based
- assay_setup: 50 μM; 24 hours; untreated cells = 100%
One threshold, 90%, splits the recorded Relative cell survival rate (%) values: lower ones are 1.0, equal or higher ones are 0.0.

> print(dat)
                                    compound  classification
 1  CCCCCCCCCCCCNC(=O)c1ncccc1Br [Compound 73]             0.0
 2  CCCCCCCCCCCCNC(=O)Cc1ccccc1 [Compound 25]             1.0
 3  CCCCCCCCCCCCNC(=O)c1c(Cl)cccc1Cl [Compound 39]             1.0
 4  CCCCCCCCCCCCNS(=O)(=O)c1ccccc1[N+](=O)[O-] [Compound 58]             0.0
 5  CCCCCCCCCCCCNC(=O)c1cccnc1Cl [Compound 13]             1.0
 6  CCCCCCCCCNC(=O)/C=C/c1ccccc1Br [Compound 10]             1.0
 7  CCCCCCCCCCCCNC(=O)c1ccc(F)c(F)c1F [Compound 55]             0.0
 8  CCCCCCCCCCCCNC(=O)c1cccnc1 [Compound 19]             1.0
 9     CCCCCCCCNC(=O)c1cccnc1N [Compound 74]             1.0
10  CCCCCCCCCCCCNC(=O)c1cccnc1Nc1cccc(C(F)(F)F)c1 [Compound 33]             1.0
11  CCCCCCCCCCCCNC(=O)c1ncc(F)cc1F [Compound 34]             1.0
12  CCCCCCCCCCCCNC(=O)c1ccccc1-c1ccc(C)cc1 [Compound 27]             1.0
13  O=C(NCCCCCCCCCCCCO)c1ccccc1Br [Compound 83]             1.0
14  C=Cc1ccccc1C(=O)NCCCCCCCCCCCC [Compound 57]             0.0
15  CCCCCCCCCCCCNS(=O)(=O)c1c(F)cccc1F [Compound 54]             1.0
16  CCCCCCCCCCCCNC(=O)c1ccccc1-c1ncc[nH]1 [Compound 52]             1.0
17  CCCCCCCCCCCCNC(=O)c1ccccc1C(=O)NC1CCCCC1 [Compound 53]             0.0
18  CCCCCCCCCCCC(=O)NCc1ccccc1Br [Compound 43]             0.0
19  CCCCCCCCCCCCNC(=O)c1c(Cl)ccnc1Cl [Compound 30]             0.0
20  CCCCCCCCCCCCNC(=O)c1cccnc1O [Compound 70]             0.0
21  CCCCCCCCCCCCNC(=O)c1ccncc1Cl [Compound 12]             1.0
22  CCCCCCCCCCCCNC(=O)c1c(F)cccc1[N+](=O)[O-] [Compound 64]             1.0
23  CCCCCC(=O)Nc1ccccc1CNC(=O)c1ccccc1Br [Compound 48]             0.0
24  CCCCCCCCCCCCNC(=O)c1cccc2ccccc12 [Compound 18]             0.0
25  O=C(NCCCCCCCCCC1CO1)c1ccccc1Br (stereo not drawn) [Compound 17]             1.0
26  CCCCCC(=O)Nc1cccc(CNC(=O)c2ccccc2Br)c1 [Compound 49]             0.0
27  CCCCCCCCCCCCNC(=O)c1ccccc1Oc1ccccc1 [Compound 61]             1.0
28  CCCCCCCCCCCCNC(=O)c1cccnc1C(F)(F)F [Compound 77]             0.0
29  CCCCCCCCCCCC(=O)Nc1ccccc1Br [Compound 42]             0.0
30  CCCCCCCCCCCCNC(=O)c1ccc2cccc(O)c2n1 [Compound 21]             0.0
31  CCCCCCCCCCCCNC(=O)c1ccccc1I [Compound 63]             1.0
32  CCCCCCCCCCCCNC(=O)c1cccnc1Oc1ccc(Cl)cc1 [Compound 26]             1.0
33  CCCCCCCCCCCCNC(=O)c1cccnc1N [Compound 69]             1.0
34  CCCCCCCCCCCCNC(=O)c1cccc(Cl)c1N [Compound 29]             1.0
35  CCCCCCCCCCCCNC(=O)c1ccccc1[N+](=O)[O-] [Compound 50]             1.0
36  CCCCCCCCCCCCNS(=O)(=O)c1ccccc1Br [Compound 35]             1.0
37  CCCCCCCCCCCCNC(=O)c1ccc2ccccc2n1 [Compound 22]             1.0
38  CCCCCCCCCCCCNC(=O)CNC(=O)c1ccccc1Cl [Compound 56]             1.0
